target: human IL-13 R130Q variant (R110Q of the mature chain) (human) (UniProt P35225); experiment: Biacore SPR, mAb from CHO
pKd: −log10 of the molar value.

binder	pKd
mAb Lc-2B03 + Hc2 M34S, M100L (antibody, human IgG1, V domains shown) VH: QVTLKESGPVLVKPTETLTLTCTVSGFSLSTYGSGVGWIRQPPGKALEWLAHIWWDDVKRYNPALKSRLTISKDTSKSQVVLTMTNMDPVDTATYYCARLGSDYDVWFDYWGQGTLVTVSS VL: EIVLTQSPATLSLSPGERATLSCRASKSISKYLAWYQQKPGQAPRLLIYSGSTLQSGIPARFSGSGSGTDFTLTISSLEPEDFAVYYCQQHDYPYTFGQGTKLEIKR	10.74
mAb Lc-2B03 + Hc2 T31S, M34V, M100L (antibody, human IgG1, V domains shown) VH: QVTLKESGPVLVKPTETLTLTCTVSGFSLSSYGVGVGWIRQPPGKALEWLAHIWWDDVKRYNPALKSRLTISKDTSKSQVVLTMTNMDPVDTATYYCARLGSDYDVWFDYWGQGTLVTVSS VL: EIVLTQSPATLSLSPGERATLSCRASKSISKYLAWYQQKPGQAPRLLIYSGSTLQSGIPARFSGSGSGTDFTLTISSLEPEDFAVYYCQQHDYPYTFGQGTKLEIKR	11.24
mAb Lc-2B03 + Hc2 T31S, M34S, M100L (antibody, human IgG1, V domains shown) VH: QVTLKESGPVLVKPTETLTLTCTVSGFSLSSYGSGVGWIRQPPGKALEWLAHIWWDDVKRYNPALKSRLTISKDTSKSQVVLTMTNMDPVDTATYYCARLGSDYDVWFDYWGQGTLVTVSS VL: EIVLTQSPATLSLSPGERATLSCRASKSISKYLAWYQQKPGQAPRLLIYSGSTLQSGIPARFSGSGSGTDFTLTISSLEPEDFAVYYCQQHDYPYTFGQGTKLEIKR	11.00
